The reader will find reported pIC50 values listed item by item below.
molecular target: Recombinant EGFR (Homo sapiens); experiment: EGFR binding affinity (LanthaScreen TR-FRET); settings: Kinase Tracer 199, 5 h incubation
Sequence (P00533 25-1210): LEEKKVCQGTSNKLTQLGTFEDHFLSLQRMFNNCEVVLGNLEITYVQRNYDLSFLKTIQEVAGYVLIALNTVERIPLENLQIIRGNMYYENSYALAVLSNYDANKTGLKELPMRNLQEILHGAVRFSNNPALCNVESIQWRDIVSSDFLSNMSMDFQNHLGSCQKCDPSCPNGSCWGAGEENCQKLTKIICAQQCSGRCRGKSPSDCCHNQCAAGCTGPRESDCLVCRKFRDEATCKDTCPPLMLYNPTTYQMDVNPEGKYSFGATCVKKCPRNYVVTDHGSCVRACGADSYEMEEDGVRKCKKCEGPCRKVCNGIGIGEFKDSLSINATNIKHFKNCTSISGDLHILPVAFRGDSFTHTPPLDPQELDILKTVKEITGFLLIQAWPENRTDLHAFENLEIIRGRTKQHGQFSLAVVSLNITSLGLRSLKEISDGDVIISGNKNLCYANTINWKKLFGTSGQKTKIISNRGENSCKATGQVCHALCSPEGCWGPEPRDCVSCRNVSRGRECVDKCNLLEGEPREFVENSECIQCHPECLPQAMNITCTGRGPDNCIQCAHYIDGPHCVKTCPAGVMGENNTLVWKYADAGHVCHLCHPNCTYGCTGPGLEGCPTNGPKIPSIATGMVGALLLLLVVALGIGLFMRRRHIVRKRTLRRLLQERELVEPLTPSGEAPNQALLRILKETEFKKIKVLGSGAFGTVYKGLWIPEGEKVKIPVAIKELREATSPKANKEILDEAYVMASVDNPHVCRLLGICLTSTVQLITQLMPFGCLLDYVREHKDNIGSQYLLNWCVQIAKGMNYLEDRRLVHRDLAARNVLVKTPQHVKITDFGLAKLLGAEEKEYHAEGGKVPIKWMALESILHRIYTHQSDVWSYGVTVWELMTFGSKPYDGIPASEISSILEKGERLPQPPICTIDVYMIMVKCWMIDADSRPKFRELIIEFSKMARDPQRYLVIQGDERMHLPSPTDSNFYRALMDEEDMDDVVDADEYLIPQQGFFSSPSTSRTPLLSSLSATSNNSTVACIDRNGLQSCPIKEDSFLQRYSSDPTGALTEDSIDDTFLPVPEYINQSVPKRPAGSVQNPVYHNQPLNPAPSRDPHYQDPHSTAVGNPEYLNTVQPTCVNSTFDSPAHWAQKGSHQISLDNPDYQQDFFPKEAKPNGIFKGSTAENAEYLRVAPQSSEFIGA
pIC50: −log10 of the molar value.

Example entries and their recorded answers appear below.
[[record]]
molecule = "COc1ccccc1C(=O)NCc1cc(-c2nn(C3CCCC3)c(N)c2C(N)=O)ccc1F"
result = "5.00 to 6.00"

[[record]]
molecule = "COc1ccc(F)cc1C(=O)NCc1ccc(-c2nn(C3CCCC3)c(N)c2C(N)=O)c(F)c1"
result = "5.00 to 6.00"

[[record]]
molecule = "COc1ccccc1C(=O)NCc1ccc(-c2nn(-c3ccc(F)c(F)c3)c(N)c2C(N)=O)cc1"
result = "5.00 to 6.00"

[[record]]
molecule = "COc1ccccc1C(=O)NCc1ccc(-c2nn(-c3ccccc3C)c(N)c2C(N)=O)cc1"
result = "5.00 to 6.00"


Sample CCN1CC(n2nc(-c3ccc(CNC(=O)c4cc(F)ccc4OC)cc3)c(C(N)=O)c2N)C(F)(F)C1 (stereo not shown) , system: Recombinant EGFR (Homo sapiens). Its pIC50 is 5.00 to 6.00

Sample CCOC(=O)C1CCCC(n2nc(-c3ccc(CNC(=O)c4ccccc4OC)cc3)c(C(N)=O)c2N)C1 (single isomer, unassigned) [Example 55] , system: Recombinant EGFR (Homo sapiens). Its pIC50 is 6.00 to 7.00

Sample COc1ccccc1C(=O)NCc1ccc(-c2nn(C3CCC(C)(O)CC3)c(N)c2C(N)=O)cc1 (single isomer, unassigned) [Example 33] , system: Recombinant EGFR (Homo sapiens). Its pIC50 is 6.00 to 7.00
